# method.description: Metabolic stability in liver microsomes with NADPH-generating system, LC-MS analysis
# Format: in vitro ADME
# experimental.setup: 15 minutes incubation, compound 5 μM, active microsomes 1 mg/ml
parameter: % metabolised compound

[[record]]
compound = "O=C(NC[C@@H]1CCN(CCCO)C[C@H]1O)c1cc(Cl)cc2c1OCCCO2 [WO-00/37461 Co. No. 144, reference compound]"
reported_result = "5 (15″) %"

[[record]]
compound = "O=C(NC[C@@H]1CCN(CCCO)C[C@H]1O)c1cc(Cl)c(Br)c2c1OCCCO2"
reported_result = "4 (15″) %"

[[record]]
compound = "O=C(NC[C@@H]1CCN(CCC2OCCO2)C[C@H]1O)c1cc(Cl)cc2c1OCCCO2 [WO-00/37461 Co. No. 143, reference compound]"
reported_result = "26.5 (15″) %"

[[record]]
compound = "O=C(NC[C@@H]1CCN(CCC2OCCO2)C[C@H]1O)c1cc(Cl)c(Cl)c2c1OCCCO2"
reported_result = "10 (15″) %"


---

# melting point listing for each entry below
parameter: melting point

[[record]]
compound = "CCOc1ccc(C(=O)NC[C@@H]2CCN(CCCC#N)C[C@H]2O)c2c1OCCCO2 [compound 145]"
reported_result = "131 °C"

[[record]]
compound = "Cc1ccc(C(=O)NC[C@@H]2CCN(CCCCNS(C)(=O)=O)C[C@H]2O)c2c1OCCCO2 [compound 107]"
reported_result = "124 °C"

[[record]]
compound = "CCCCN1CC[C@@H](CNC(=O)c2cc(Cl)c(Cl)c3c2OCCCO3)[C@H](O)C1 [compound 16]"
reported_result = "115 °C"

[[record]]
compound = "Cc1ccc(C(=O)NC[C@@H]2CCN(CCCC(N)=O)C[C@H]2O)c2c1OCCCO2 [compound 109]"
reported_result = "160 °C"

[[record]]
compound = "COCCCN1CC[C@@H](CNC(=O)c2ccc(C)c3c2OCCCO3)[C@H](O)C1 [compound 2]"
reported_result = "109 °C"

[[record]]
compound = "COc1ccc(C(=O)NC[C@@H]2CCN(CCCC(N)=O)C[C@H]2OC)c2c1OCCO2 [compound 140]"
reported_result = "180 °C"


---

# test.system: h5-HT4b (Homo sapiens)
# Construct: expressed in transfected cells; host or cells: HEK 293 (clone 9), membrane preparation
# Sequence (Q13639 whole entry): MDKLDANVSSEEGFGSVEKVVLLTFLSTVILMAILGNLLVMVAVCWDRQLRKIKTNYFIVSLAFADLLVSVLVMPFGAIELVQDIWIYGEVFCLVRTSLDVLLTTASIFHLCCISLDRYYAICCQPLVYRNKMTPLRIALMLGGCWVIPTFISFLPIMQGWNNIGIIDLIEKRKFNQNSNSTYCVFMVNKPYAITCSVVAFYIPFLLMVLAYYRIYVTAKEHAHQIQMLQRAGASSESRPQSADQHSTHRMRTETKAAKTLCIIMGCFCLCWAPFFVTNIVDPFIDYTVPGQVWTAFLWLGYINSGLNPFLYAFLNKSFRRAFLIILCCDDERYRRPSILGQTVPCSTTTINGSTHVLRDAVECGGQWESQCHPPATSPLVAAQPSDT
# method.description: 5HT4 antagonism: [3H]GR113808 binding to membranes of h5-HT4b-HEK 293 clone 9 cells
# experimental.setup: [3H]GR113808 0.1 nM, h5-HT4b-HEK 293 membranes, 30 min at 25° C.
pIC50: −log10 of the molar value.
# pIC50 listing for each entry below
parameter: pIC50

[[record]]
molecule = "N#CCCCN1CC[C@@H](CNC(=O)c2cc(Cl)c(Br)c3c2OCCCO3)[C@H](O)C1"
parameter = "pIC50"
reported_result = 8.52

[[record]]
molecule = "Cc1ccc(C(=O)NC[C@@H]2CCN(CC3CCCO3)C[C@H]2O)c2c1OCCCO2 (stereo partly drawn)"
parameter = "pIC50"
reported_result = 8.99

[[record]]
molecule = "COCCCN1CC[C@@H](CNC(=O)c2cc(Cl)c(Cl)c3c2OCCCO3)[C@H](OC)C1"
parameter = "pIC50"
reported_result = 8.43

[[record]]
molecule = "COc1ccc(C(=O)NC[C@H]2CCN(CCCC(N)=O)C[C@H]2O)c2c1OCCCO2"
parameter = "pIC50"
reported_result = 6.55

[[record]]
molecule = "COc1c(Cl)cc(C(=O)NC[C@@H]2CCN(CCCO)C[C@H]2OC)c2c1OCCCO2"
parameter = "pIC50"
reported_result = 7.44

[[record]]
molecule = "COc1ccc(C(=O)NC[C@@H]2CCN(CCC3OCCO3)C[C@H]2O)c2c1OCCCO2"
parameter = "pIC50"
reported_result = 8.61

